System: magnesium deficient erythrocytes
protocol.text: Promotion of magnesium binding in magnesium depleted erythrocyte membranes (in vitro screen)
Type: cell-based, human
condition: uptake in excess of that with KRPG alone
Ends that are not written are not given here.
property.label: measurable binding of magnesium ions to the erythrocyte membrane (in words)

1-9 Substance P: commercial preparation of amidated peptide derived from the N-terminal region of Substance P (RPKPQQFFG-NH2; UniProt P20366 58-66, looked up, fragment) [reference compound]	no measurable activity
9-11 Substance P: commercial preparation of amidated peptide derived from the C-terminal region of Substance P (Gly-Leu-Met-NH2; UniProt P20366 66-68, looked up, fragment) [reference compound]	no measurable activity

Source of measurements: patent US20040171093A1
